Experiment: Pharmacokinetics in rats after i.v. and oral dosing
Type: in vivo
Details: rat, oral
Measured Metric: bio-available after oral dosing in rats

>  <Line Notation>
CCc1cc(N(C)C)c2c(c1O)C(=O)C1=C(O)[C@]3(O)C(=O)C(C(N)=O)=C(O)C[C@@H]3C[C@@H]1C2

>  <Test Value>
bio-available

$$$$
>  <Line Notation>
CC(C)c1cc(N(C)C)c2c(c1O)C(=O)C1=C(O)[C@]3(O)C(=O)C(C(N)=O)=C(O)[C@@H](N(C)C)[C@@H]3C[C@@H]1C2

>  <Test Value>
bio-available

$$$$
>  <Line Notation>
CN(C)c1cc(-c2cccn2C)c(O)c2c1C[C@H]1C[C@H]3CC(O)=C(C(N)=O)C(=O)[C@@]3(O)C(O)=C1C2=O

>  <Test Value>
bio-available

$$$$
>  <Line Notation>
COC(=O)c1cc(N(C)C)c2c(c1O)C(=O)C1=C(O)[C@]3(O)C(=O)C(C(N)=O)=C(O)C[C@@H]3C[C@@H]1C2

>  <Test Value>
bio-available

$$$$

----------
System: collagen-induced arthritis (CIA) in male DBA/1 mice
Test: Murine collagen-induced arthritis (CIA) model, Example 2
Type: in vivo, mouse
Conditions: day 7 of dosing; 25 mg/kg/day i.p.

>  <Compound>
CN(C)c1ccc(O)c2c1C[C@H]1C[C@H]3[C@H](N(C)C)C(O)=C(C(N)=O)C(=O)[C@@]3(O)C(O)=C1C2=O [Minocycline, minocycline, reference compound]

>  <Change in Paw Thickness (mm) Mean>
0.92

$$$$
>  <Compound>
CC(C)c1cc(N(C)C)c2c(c1O)C(=O)C1=C(O)[C@]3(O)C(=O)C(C(N)=O)=C(O)[C@@H](N(C)C)[C@@H]3C[C@@H]1C2

>  <Change in Paw Thickness (mm) Mean>
0.50

$$$$
>  <Compound>
COC(=O)c1cc(N(C)C)c2c(c1O)C(=O)C1=C(O)[C@]3(O)C(=O)C(C(N)=O)=C(O)C[C@@H]3C[C@@H]1C2

>  <Change in Paw Thickness (mm) Mean>
0.35

$$$$
>  <Compound>
CCc1cc(N(C)C)c2c(c1O)C(=O)C1=C(O)[C@]3(O)C(=O)C(C(N)=O)=C(O)C[C@@H]3C[C@@H]1C2

>  <Change in Paw Thickness (mm) Mean>
0.42

$$$$
>  <Compound>
CN(C)c1cc(-c2cccn2C)c(O)c2c1C[C@H]1C[C@H]3CC(O)=C(C(N)=O)C(=O)[C@@]3(O)C(O)=C1C2=O

>  <Change in Paw Thickness (mm) Mean>
−0.01

$$$$

----------
Test system: collagen-induced arthritis (CIA) in male DBA/1 mice
Assay: Murine collagen-induced arthritis (CIA) model, Example 2
Assay type: in vivo, mouse
Settings: CIA mice, i.p. daily
Recorded EC50 in inflammation suppression in CIA mice values for a group of compounds are listed next.
Measured Metric: EC50 in inflammation suppression in CIA mice

>  <Compound>
CCc1cc(N(C)C)c2c(c1O)C(=O)C1=C(O)[C@]3(O)C(=O)C(C(N)=O)=C(O)C[C@@H]3C[C@@H]1C2

>  <Measured Target>
collagen-induced arthritis (CIA) in male DBA/1 mice

>  <Test Value>
12 mg/kg/day i.p.

$$$$
>  <Compound>
COC(=O)c1cc(N(C)C)c2c(c1O)C(=O)C1=C(O)[C@]3(O)C(=O)C(C(N)=O)=C(O)C[C@@H]3C[C@@H]1C2

>  <Measured Target>
collagen-induced arthritis (CIA) in male DBA/1 mice

>  <Test Value>
20 mg/kg/day i.p.

$$$$
>  <Compound>
CN(C)c1ccc(O)c2c1C[C@H]1C[C@H]3[C@H](N(C)C)C(O)=C(C(N)=O)C(=O)[C@@]3(O)C(O)=C1C2=O [Minocycline, minocycline, reference compound]

>  <Measured Target>
collagen-induced arthritis (CIA) in male DBA/1 mice

>  <Test Value>
>50 mg/kg/day i.p.

$$$$
>  <Compound>
CN(C)c1cc(-c2cccn2C)c(O)c2c1C[C@H]1C[C@H]3CC(O)=C(C(N)=O)C(=O)[C@@]3(O)C(O)=C1C2=O

>  <Measured Target>
collagen-induced arthritis (CIA) in male DBA/1 mice

>  <Test Value>
12 mg/kg/day i.p.

$$$$
>  <Compound>
CC(C)c1cc(N(C)C)c2c(c1O)C(=O)C1=C(O)[C@]3(O)C(=O)C(C(N)=O)=C(O)[C@@H](N(C)C)[C@@H]3C[C@@H]1C2

>  <Measured Target>
collagen-induced arthritis (CIA) in male DBA/1 mice

>  <Test Value>
14 mg/kg/day i.p.

$$$$

The measurements presented in this section are drawn from patent US20100190755A1.
